Cited source: patent US20110059095A1

Molecular target: T1, Peptide A (human PAR-2), C-terminal biotinylated (Human, C-terminal biotin via G4S linker)
T1 construct: also called Peptide A C-Term
Assay: peptide ELISA titration
Protocol: Anti-PAR-2 antibodies were tested for their ability to bind to the PAR-2 peptides. […] Detection of bound antibodies was determined with Horse-Radish Peroxidase (HRP) conjugated anti-mouse or human IgG (Jackson Immuno Research Lab, West Grove, Pa.) and developed by standard colorimetric response using tetramethylbenzidine (TMB) substrate. Absorbance was read at OD₄₅₀ for 0.1 second. […]
value.type: EC50 (nM)
One number for each entry, in nM.

{"binder": "H4H579P (antibody, human IgG4, V domains shown, also called H1H579P variable regions) VH: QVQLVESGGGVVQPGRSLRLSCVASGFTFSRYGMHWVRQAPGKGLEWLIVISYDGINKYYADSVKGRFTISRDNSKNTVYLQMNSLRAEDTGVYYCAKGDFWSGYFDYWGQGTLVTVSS VL: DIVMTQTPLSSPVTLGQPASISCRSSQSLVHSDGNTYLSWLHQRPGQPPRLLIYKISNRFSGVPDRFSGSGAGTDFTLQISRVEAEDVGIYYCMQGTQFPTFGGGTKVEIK", "quantitative.result": 0.076}

Query :: Please give the measured EC50 for this binder: H4H581P (antibody, human IgG4, V domains shown, also called mAb H4H581P; H1H581P variable regions) VH: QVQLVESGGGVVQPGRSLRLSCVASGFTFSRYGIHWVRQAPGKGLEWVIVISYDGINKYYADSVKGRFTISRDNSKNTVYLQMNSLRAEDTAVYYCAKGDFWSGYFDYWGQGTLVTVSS VL: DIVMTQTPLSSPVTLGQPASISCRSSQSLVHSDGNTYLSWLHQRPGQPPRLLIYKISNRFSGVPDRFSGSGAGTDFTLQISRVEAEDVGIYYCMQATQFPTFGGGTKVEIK
Result :: 0.028
